test system: HLA-A*02:01 (human)
assay details: radioligand competition, purified MHC
Exercise: state measured log10 IC50 for each of the binders provided.
Answers are given as log10 of IC50 in nM.

- GPMVLRGLIT (modifications not checked) [… (SEQ ID NO: 6)]: 3.30
- ELPDEFVVVTV (modifications not checked) [… (SEQ ID NO: 8)]: 0.20
- YLNSTNVTI (modifications not checked) [… (SEQ ID NO: 24)]: 1.08

Take each entry in turn and give its log10 IC50.
1. ELPDEFVVV (modifications not checked) [… (SEQ ID NO: 12)]
2. SLEDKAFQL (modifications not checked) [… (SEQ ID NO: 7)]

Return:
1: 2.66; 2: 1.30
